Tested on: NCI-H23 lung
method: NCI tumour cell line growth inhibition, 48 h
Classification field: met = TGI at or over 30 µM; not met = TGI under 30 µM.

molecule	class.assignment
COC[C@H]1C(=O)NCC(=O)N2NCCC[C@H]2C(=O)N(O)[C@H](C)C(=O)O[C@@H](C(C)C)[C@H](NC(=O)[C@](C)(O)[C@]2(O)CC[C@@H](CC(C)C)[C@H](C)O2)C(=O)N2NCCC[C@@H]2C(=O)N1O	not met
CN(C)[C@@H]1C(=O)C(C(N)=O)=C(O)[C@@]2(O)C(=O)C3=C(O)c4c(O)cccc4C[C@H]3C[C@@H]12	not met
COc1ccc(CC(=O)c2cc(OC)c(OC)cc2C)cc1OC	met
C[C@]12CC[C@H](O)CC1=CC[C@@H]1[C@@H]2CC[C@]2(C)C(=O)/C(=C/c3cccc(OCCCn4ccnc4)c3)C[C@@H]12	met
O=C(C=P(c1ccccc1)(c1ccccc1)c1ccccc1)C12CC3CC(CC(C3)C1)C2	met
COc1ccc(-n2sc3ncc(-c4ccccc4)cc3c2=O)cc1	met
C[C@@H]1O[C@@H](O[C@H]2C[C@@H](O)[C@]3(CO)C4C(CC[C@]3(O)C2)[C@@]2(O)CC[C@H](C3=CC(=O)OC3)[C@@]2(C)C[C@H]4O)[C@H](O)[C@H](O)[C@H]1O (some centres not stated)	not met
CC(=O)[CH-]C(=O)c1ccccc1.CC(=O)[CH-]C(=O)c1ccccc1.[Nd+3].[OH-].[OH3+]	met
C=C/C(C)=C/[C@H](C)C(=O)C[C@H](O)CC1CC(=O)NC(=O)C1	met
O=c1cc2n(c(=O)[nH]1)C1OC(C(O)C1O)[C@@H]2CCO (some centres not stated)	met
COc1c2nc(CCl)n(C)c(=O)c2c(OC)c2c(=O)n(C)c(CCl)nc12	not met
N/C(CC/C(N)=N\O)=N\O	met

* * *

Test system: M19-MEL melanoma
method: NCI tumour cell line growth inhibition, 48 h
Where a SMILES comes first, the peptide text is derived from it. [ ]: non-standard residue; d: D form. The star is where a group is joined. ξ: configuration not given here. X16 = COC1=CC(=O)N(C(=O)C(O*)C(C)C)C1Cc1ccccc1; ξNMe2Val = CC(C)C(C(=O)*)N(C)C; NMeV = CN[CH](C(=O)O)C(C)C
TGI reference

compound	TGI
Cc1cccc(C)c1NC(=O)CCC(=O)NNC(=O)c1cc(O)c2ccccc2c1	> 100 µM
Cc1ccc(OP2(=O)Oc3ccc4ccccc4c3CN2c2ccc(Cl)cc2)cc1C (centres undefined)	> 100 µM
CCCCN(CC)C(=O)C(=O)C1C(=O)Nc2ccccc2S1=O (centres undefined)	> 100 µM
O=C(Cn1ccnc1[N+](=O)[O-])N(CCO)CCO	> 1250 µM
O=C(Cc1ccccc1)Oc1ccc2c(-c3ccccc3)c(C(=O)Nc3ccc(Cl)cc3)c(=O)oc2c1	> 100 µM
COc1cc(OC)cc(N2CCC(c3c(N)nc(N)nc3Cl)CC2)c1	> 100 µM
COC1=CC(=O)N(C(=O)C(OC(=O)C2CCCN2C(=O)C2CCCN2C(=O)C(C(C)C)N(C)C(=O)C(NC(=O)C(C(C)C)N(C)C)C(C)C)C(C)C)C1Cc1ccccc1 (centres undefined) (ξNMe2Val-V[NMeV]PP-X16; configuration not given here)	> 4 µM
O=C1CCC2(c3ccc(F)cc3)Nc3ccccc3N12 (centres undefined)	> 100 µM
CC(=O)[CH-]C(=O)c1ccccc1.CC(=O)[CH-]C(=O)c1ccccc1.[Nd+3].[OH-].[OH3+]	> 100 µM
COc1ccc(OC)c(/C=C/[N+](=O)[O-])c1	5.96 µM
Nc1nc2ncn(CCO)c2c(=O)[nH]1	> 100 µM
COC(=O)N1[C@H]2Cc3c(OC)c(C)c(OC)c(OC)c3[C@@H]1/C(=C\c1cc(OC)c(OC)c(C)c1OC)N(Cc1ccccc1)C2=O	60 µM
CC(C)(C)c1nc2c(o1)C(=Nc1ccccc1)c1ccccc1C2=O	2.32 µM
Cc1c(/C=C2\CC/C(=C\c3[nH]c(C(=O)OC(C)(C)C)c(C)c3C)C2=O)[nH]c(C(=O)OC(C)(C)C)c1C	> 100 µM
O=c1cc2n(c(=O)[nH]1)C1OC(C(O)C1O)[C@@H]2CCO (some centres undefined)	> 100 µM
COC(=O)/C(=C/c1ccc(OC)cc1)C(C(=O)O)=C(C)C	> 100 µM
COC1/C=C/O[C@@]2(C)Oc3c(C)c(O)c4c(O)c(cc(O)c4c3C2=O)NC(=O)/C(C)=C\C=C\[C@H](C)C(O)[C@@H](C)[C@@H](O)[C@@H](C)[C@H](OC(C)=O)[C@@H]1C (some centres undefined)	26.1 µM
Nc1cc2c(cc1[N+](=O)[O-])[nH]c1c(-c3ccccc3)nccc12	42.7 µM
O=[N+]([O-])c1ccccc1S(=O)c1ccccc1 (centres undefined)	> 100 µM
